# credit: ChEMBL document CHEMBL1123159

Catalogue of Concentration readings, one per entry.
target: Beta-2 adrenergic receptor (Bos taurus) (UniProt Q28044); experiment: Concentration required for maximal (95-100%) beta-2 adrenergic receptor occupancy
Sequence (Q28044 whole entry, looked up): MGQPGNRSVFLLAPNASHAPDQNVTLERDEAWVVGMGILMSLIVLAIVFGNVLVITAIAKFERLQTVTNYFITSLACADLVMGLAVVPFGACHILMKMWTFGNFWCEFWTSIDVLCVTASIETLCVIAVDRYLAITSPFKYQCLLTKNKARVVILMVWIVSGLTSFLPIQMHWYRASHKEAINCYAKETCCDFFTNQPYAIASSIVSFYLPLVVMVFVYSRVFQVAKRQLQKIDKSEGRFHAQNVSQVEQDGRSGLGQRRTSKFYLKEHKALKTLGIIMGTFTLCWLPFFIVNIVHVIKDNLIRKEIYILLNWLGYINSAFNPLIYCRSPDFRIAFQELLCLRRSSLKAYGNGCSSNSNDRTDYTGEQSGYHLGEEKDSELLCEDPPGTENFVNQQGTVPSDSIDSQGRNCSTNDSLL
Number only, in µM; omit the unit.

In the examples that follow, each entry is paired with its recorded Concentration.
CC(C)(C)NCC(O)c1ccc(O)c(CO)c1 (stereo not drawn) = 30
CNc1cc(C(O)CNC(C)(C)C)ccc1O (stereo not drawn) = 30

Name the recorded Concentration for CC(C)(C)NCC(O)c1ccc(O)c(C(N)=O)c1 (stereo not drawn) .
30

* * *

molecular target: Beta-2 adrenergic receptor (Bos taurus); assay: Beta-2 adrenergic receptor intrinsic symphaticomimetic activity relative to salbutamol; format: functional
Catalogue of ISA readings, one per entry.
Please give only the number in your answer, with no unit.

CC(C)(C)NCC(O)c1cc(O)cc(O)c1 (stereo not given) = 0.41

Param readout = ISA; param system = Beta-2 adrenergic receptor (Bos taurus); param query = CC(C)(C)NCC(O)c1ccc(O)c(C(N)=O)c1 (stereo not given) ; response: value
0.2

Param readout = ISA; param system = Beta-2 adrenergic receptor (Bos taurus); param query = CNc1cc(C(O)CNC(C)(C)C)ccc1O (stereo not given) ; response: value
0.95

Param readout = ISA; param system = Beta-2 adrenergic receptor (Bos taurus); param query = CC(C)(C)NCC(O)c1cc(Cl)c(O)c(Cl)c1 (stereo not given) ; response: value
0.39

Param readout = ISA; param system = Beta-2 adrenergic receptor (Bos taurus); param query = CC(C)(C)NCC(O)c1ccc(O)cc1 (stereo not given) ; response: value
0.8

Param readout = ISA; param system = Beta-2 adrenergic receptor (Bos taurus); param query = CC(C)(C)NCC(O)c1ccccc1Cl (stereo not given) [TULOBUTEROL] ; response: value
0.5

Param readout = ISA; param system = Beta-2 adrenergic receptor (Bos taurus); param query = CC(C)(C)NCC(O)c1ccc(O)c(N)c1 (stereo not given) ; response: value
0.68

Param readout = ISA; param system = Beta-2 adrenergic receptor (Bos taurus); param query = CC(C)(C)NCC(O)c1ccc(O)c(O)c1 (stereo not given) [COLTEROL] ; response: value
0.68

Param readout = ISA; param system = Beta-2 adrenergic receptor (Bos taurus); param query = CC(C)(C)NCC(O)c1ccc(O)c(CO)c1 (stereo not given) ; response: value
1

Param readout = ISA; param system = Beta-2 adrenergic receptor (Bos taurus); param query = CC(C)(C)NCC(O)c1cc(Cl)c(N)c(Cl)c1 (stereo not given) ; response: value
0.53
